applied conditions: 293 K; 101.33 kPa; Liquid; Vibrating tube method
Reported values of mass density for individual entries
Express it in kg/m3; write the number only.

As a guide, the following entries are already answered.
- compound: "Cc1ccccc1 [toluene]"
  mass density, kg/m3: 867.3
- compound: "CC(=O)OC1CCCCC1 [cyclohexyl ethanoate]"
  mass density, kg/m3: 969.2
- compound: "CCC(=O)O [propanoic acid]"
  mass density, kg/m3: 992.5
- compound: "CCCCCO [pentan-1-ol]"
  mass density, kg/m3: 814

Now consider a different compound.
Input CC(=O)O [acetic acid] . Output mass density: 1049.5
